- Test System: human Nav1.7 (Homo sapiens (Human), UniProt Q15858)
- Test: FLIPR or FLIPR TETRA sodium dye assay with KCl and test article pre-incubation
- Type: cell-based
Each entry below carries its recorded IC50.

>  <Compound>
O=C1CN(Cc2cc([C@H](O)CO)nc(-c3ccc(Oc4ccc(OC(F)(F)F)cc4)cc3)n2)CCN1 [Compound 41]

>  <Test System>
human Nav1.7 (Homo sapiens (Human), UniProt Q15858)

>  <IC50 / µM>
1.19

$$$$
>  <Compound>
NC(=O)c1cc(CN2CCNC(=O)C2)nc(C2=CCC(Oc3ccc(C(F)(F)F)cc3)CC2)n1 (stereo not shown) [Compound 59]

>  <Test System>
human Nav1.7 (Homo sapiens (Human), UniProt Q15858)

>  <IC50 / µM>
0.07

$$$$
>  <Compound>
CC1(C)C(=O)NCCN1Cc1cc(C(N)=O)nc(-c2ccc(Oc3ccc(C(F)(F)F)cc3)cc2)n1 [Compound 61]

>  <Test System>
human Nav1.7 (Homo sapiens (Human), UniProt Q15858)

>  <IC50 / µM>
0.627

$$$$
>  <Compound>
NC(=O)c1cc(CN2CCNC(=O)C2)nc(-c2ccc(Oc3ccc(C(F)(F)F)cn3)cc2)n1 [Compound 28]

>  <Test System>
human Nav1.7 (Homo sapiens (Human), UniProt Q15858)

>  <IC50 / µM>
2.45

$$$$

----------
# Ki per record follows
- Test System: hNav1.7 (Homo sapiens (Human), UniProt Q15858)
- Sequence (Q15858 other isoform, or with tags, fused parts or gaps): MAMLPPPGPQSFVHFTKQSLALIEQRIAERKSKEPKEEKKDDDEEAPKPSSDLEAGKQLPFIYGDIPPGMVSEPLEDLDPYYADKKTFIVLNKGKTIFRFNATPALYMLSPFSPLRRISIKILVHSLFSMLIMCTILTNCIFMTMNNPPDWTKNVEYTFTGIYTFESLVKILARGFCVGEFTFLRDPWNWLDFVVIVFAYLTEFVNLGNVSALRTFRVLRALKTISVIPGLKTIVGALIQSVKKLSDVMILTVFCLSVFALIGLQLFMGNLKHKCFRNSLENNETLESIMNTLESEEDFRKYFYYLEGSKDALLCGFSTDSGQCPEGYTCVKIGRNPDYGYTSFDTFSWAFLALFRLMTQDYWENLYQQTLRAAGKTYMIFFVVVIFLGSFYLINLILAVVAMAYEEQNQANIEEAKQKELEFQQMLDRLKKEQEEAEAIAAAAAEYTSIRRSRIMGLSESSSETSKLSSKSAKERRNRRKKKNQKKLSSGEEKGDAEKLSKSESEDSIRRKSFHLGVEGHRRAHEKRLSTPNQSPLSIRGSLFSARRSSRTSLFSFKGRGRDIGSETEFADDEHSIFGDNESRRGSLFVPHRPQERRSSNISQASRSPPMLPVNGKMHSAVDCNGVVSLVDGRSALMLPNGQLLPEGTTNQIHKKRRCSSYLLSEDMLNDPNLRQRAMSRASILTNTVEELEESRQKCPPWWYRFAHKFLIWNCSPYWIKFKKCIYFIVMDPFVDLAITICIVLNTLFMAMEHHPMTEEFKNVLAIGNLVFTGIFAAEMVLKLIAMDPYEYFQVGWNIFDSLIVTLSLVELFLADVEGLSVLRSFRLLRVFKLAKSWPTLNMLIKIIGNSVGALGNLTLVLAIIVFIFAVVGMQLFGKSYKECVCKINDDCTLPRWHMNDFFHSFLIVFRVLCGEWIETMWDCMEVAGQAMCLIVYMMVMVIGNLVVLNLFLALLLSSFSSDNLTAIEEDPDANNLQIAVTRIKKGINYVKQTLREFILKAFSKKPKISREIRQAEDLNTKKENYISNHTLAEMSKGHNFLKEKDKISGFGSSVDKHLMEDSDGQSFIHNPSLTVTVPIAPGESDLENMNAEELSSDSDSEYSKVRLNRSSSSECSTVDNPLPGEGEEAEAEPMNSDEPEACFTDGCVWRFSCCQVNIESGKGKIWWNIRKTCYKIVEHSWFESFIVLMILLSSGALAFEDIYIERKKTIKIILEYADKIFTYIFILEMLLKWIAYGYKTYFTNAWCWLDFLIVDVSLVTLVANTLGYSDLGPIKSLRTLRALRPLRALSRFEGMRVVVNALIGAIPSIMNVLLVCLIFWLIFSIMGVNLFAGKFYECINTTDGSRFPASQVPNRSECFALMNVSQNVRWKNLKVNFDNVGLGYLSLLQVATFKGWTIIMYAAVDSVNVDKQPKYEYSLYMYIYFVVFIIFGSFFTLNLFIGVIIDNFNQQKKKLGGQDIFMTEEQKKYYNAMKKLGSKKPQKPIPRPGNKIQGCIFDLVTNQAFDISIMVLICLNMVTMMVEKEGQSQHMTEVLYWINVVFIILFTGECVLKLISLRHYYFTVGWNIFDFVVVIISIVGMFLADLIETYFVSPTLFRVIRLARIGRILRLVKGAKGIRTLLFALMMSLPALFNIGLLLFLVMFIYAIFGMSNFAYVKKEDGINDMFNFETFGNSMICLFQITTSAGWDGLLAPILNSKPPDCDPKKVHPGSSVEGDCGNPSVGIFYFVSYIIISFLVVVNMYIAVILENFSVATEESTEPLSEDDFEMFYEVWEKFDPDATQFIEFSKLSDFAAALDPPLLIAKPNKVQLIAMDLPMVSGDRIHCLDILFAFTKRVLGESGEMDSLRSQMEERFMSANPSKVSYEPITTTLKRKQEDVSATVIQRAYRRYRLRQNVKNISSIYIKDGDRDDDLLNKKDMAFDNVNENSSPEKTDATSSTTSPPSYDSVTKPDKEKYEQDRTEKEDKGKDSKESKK
- Test: Electrophysiology (EP) assay, whole-cell patch clamp in hNav1.7 expressing HEK-293 cells
- Format: cell-based
- Condition Label: affinity for inactivated state of hNav1.7, HEK-293; read-out: Nav1.7 Activity (μM) EP assay Ki

>  <Compound>
NC(=O)c1cc(CN2CCNC(=O)C2)nc(C2=CCC(Oc3ccc(C(F)(F)F)cc3)CC2)n1 (stereo not shown) [Compound 59]

>  <Ki [µM]>
0.059

$$$$
>  <Compound>
NC(=O)c1cc(CN[C@H]2CCNC2=O)nc(-c2ccc(Oc3ccc(C4CC4)cn3)cc2)n1 [Compound 14]

>  <Ki [µM]>
1.41

$$$$
>  <Compound>
NC(=O)c1cc(CN[C@@H](CO)C(N)=O)nc(-c2ccc(Oc3ccc(C(F)(F)F)cc3)cc2)n1 [Compound 23]

>  <Ki [µM]>
0.145

$$$$
>  <Compound>
NC(=O)c1cc(CN[C@H]2CCNC2=O)nc(-c2ccc(Oc3ccc(Cl)cc3F)cc2)n1 [Compound 15]

>  <Ki [µM]>
0.041

$$$$
>  <Compound>
NC(=O)c1cc(CN2CC[C@@H](O)[C@H]2C(N)=O)nc(-c2ccc(Oc3ccc(C(F)(F)F)cc3)cc2)n1 [Compound 65]

>  <Ki [µM]>
0.046

$$$$
>  <Compound>
C[C@H](NCc1cc(C(N)=O)nc(C2=CCC(Oc3ccc(C(F)(F)F)cc3)CC2)n1)C(N)=O (stereo partly shown) [Compound 57]

>  <Ki [µM]>
0.175

$$$$
>  <Compound>
NC(=O)c1cc(CN[C@H]2CCNC2=O)nc(-c2ccc(Oc3ccc(C(F)(F)F)cn3)cc2)n1 [Compound 26]

>  <Ki [µM]>
0.662

$$$$
>  <Compound>
NC(=O)c1cc(CN2C[C@H](O)C[C@H]2C(N)=O)nc(-c2ccc(Oc3ccc(C(F)(F)F)cc3)cc2)n1 [Compound 24]

>  <Ki [µM]>
0.342

$$$$
>  <Compound>
NC(=O)c1cc(CN2CCNC(=O)C2)nc(-c2ccc(Oc3ccc(C(F)(F)F)cc3)cc2)n1 [Compound 27]

>  <Ki [µM]>
0.08

$$$$
>  <Compound>
CC(C)[C@H](NCc1cc(C(N)=O)nc(-c2ccc(Oc3ccc(C(F)(F)F)cc3)cc2)n1)C(N)=O [Compound 22]

>  <Ki [µM]>
0.22

$$$$

These data points were gathered from patent US9745287B2.
